These data points were gathered from patent US20210301000A1.

Give measured pKd for each item. Keep answers brief.
- tested_on: DN quality control product recombinant protein (a recombinant antigen produced by the company itself) (dengue virus)
- test_description: AMO sensor, antibody on sensor, antigen in solution
Reminder that pKd means the negative base-10 logarithm of the concentration expressed in mol/L.

get_value(item= Mutation 1-25 (antibody, V domains shown) VH: QVQLQQSGAELVRPGTSVKISCKASGYTFTEYWIGWVKQRPGHGLEWIGDMFPGDVYINYQEKFKGKATLTADTSSNTAYMQLSSLTSEDSAVYFCTNFLTLGGLDYWGRGTSLTVSS VL: DVVMTQTPLTLSVTIGQPASISCKSSNSLLDSDGRTYLNWLLQRPGQSPKRLIYLVSKIDSGVPDRFTGSGSVTDFTLKISRVESEDLGVYYCWYGTHFPHTFGAGTKLEVKR , readout=pKd) returns 8.22

get_value(item= Mutation 1-46 (antibody, V domains shown) VH: QVQLQQSGAELVRPGTSVKISCKASGYTFTEYWIGWVKQRPGHGLEWIGDMFPGDIYINYNEKFKGKATLTADTSSNTAYMQLSSLTSEDSAVYFCTNFITLGGIDYWGRGTSLTVSS VL: DVVMTQTPLTLSVTIGQPASISCKSSNSLLDSDGRTYLNWLLQRPGQSPKRLIYLVSKVDSGVPDRFTGSGSVTDFTLKISRVESEDLGVYYCWYGTHFPHTFGAGTKLEVKR , readout=pKd) returns 8.10

get_value(item= Mutation 1-28 (antibody, V domains shown) VH: QVQLQQSGAELVRPGTSVKISCKASGYTFTDYWIGWVKQRPGHGLEWIGDMFPGDIYINYNEKFKGKATLTADTSSNTAYMQLSSLTSEDSAVYFCTNFITLGGIDYWGRGTSLTVSS VL: DVVMTQTPLTLSVTIGQPASISCKSSNSLLDSDGRTYLNWLLQRPGQSPKRLIYLVSKIDSGVPDRFTGSGSVTDFTLKISRVESEDLGVYYCWYGTHFPHTFGAGTKLEVKR , readout=pKd) returns 8.18

get_value(item= Mutation 1-19 (antibody, V domains shown) VH: QVQLQQSGAELVRPGTSVKISCKASGYTFTEYWIGWVKQRPGHGLEWIGDMFPGDIYINYNEKFKGKATLTADTSSNTAYMQLSSLTSEDSAVYFCTNFITLGGIDYWGRGTSLTVSS VL: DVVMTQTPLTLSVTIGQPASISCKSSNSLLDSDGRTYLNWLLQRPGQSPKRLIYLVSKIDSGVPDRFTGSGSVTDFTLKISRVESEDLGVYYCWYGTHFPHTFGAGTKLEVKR , readout=pKd) returns 8.33

get_value(item= Mutation 1-40 (antibody, V domains shown) VH: QVQLQQSGAELVRPGTSVKISCKASGYTFTDYWIGWVKQRPGHGLEWIGDMFPGDVYINYQEKFKGKATLTADTSSNTAYMQLSSLTSEDSAVYFCTNFITLGGIDYWGRGTSLTVSS VL: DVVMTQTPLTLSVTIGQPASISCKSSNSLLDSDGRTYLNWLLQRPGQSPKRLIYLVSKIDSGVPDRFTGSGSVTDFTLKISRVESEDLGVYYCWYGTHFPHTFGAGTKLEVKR , readout=pKd) returns 8.39

get_value(item= WT 1-30 (antibody, V domains shown) VH: QVQLQQSGAELVRPGTSVKISCKASGYSFTEYWIGWVKQRPGHGLEWIGDMVPGDLYINYNEKFKGKATLTADTSSNTAYMQLSSLTSEDSAVYFCTNFLTVGGVDYWGRGTSLTVSS VL: DVVMTQTPLTLSVTIGQPASISCKSSNSLLESDGKTYLNWLLQRPGQSPKRLIYLVTKIDSGVPDRFTGSGSVTDFTLKISRVESEDLGVYYCWWGTHFAHTFGAGTKLEVKR , readout=pKd) returns 7.69

get_value(item= recombinant anti-dengue virus NS1 11E2 antibody (WT) (antibody, mouse IgG2a, kappa, V domains shown) VH: QVQLQQSGAELVRPGTSVKISCKASGYSFTDYWIGWVKQRPGHGLEWIGDMVPGDLYINYQEKFKGKATLTADTSSNTAYMQLSSLTSEDSAVYFCTNFITVGGLDYWGRGTSLTVSS VL: DVVMTQTPLTLSVTIGQPASISCKSSNSLLDSDGKTYLNWLLQRPGQSPKRLIYLVTKIDSGVPDRFTGSGSVTDFTLKISRVESEDLGVYYCWWGTHFPHTFGAGTKLEVKR , readout=pKd) returns 7.23

get_value(item= WT 1-1 (antibody, V domains shown) VH: QVQLQQSGAELVRPGTSVKISCKASGYSFTEYWIGWVKQRPGHGLEWIGDMVPGDLYINYNEKFKGKATLTADTSSNTAYMQLSSLTSEDSAVYFCTNFITVGGVDYWGRGTSLTVSS VL: DVVMTQTPLTLSVTIGQPASISCKSSQSLLESDGKTYLNWLLQRPGQSPKRLIYLVTKIDSGVPDRFTGSGSVTDFTLKISRVESEDLGVYYCWYGTHFAHTFGAGTKLEVKR , readout=pKd) returns 7.89
